FYI, the data here is from ChEMBL document CHEMBL1201862.

- System: MCF7
- Assay protocol: NCI tumour cell line growth inhibition, 48 h
Activity calls are given as the source filed them. Cut-off read from the data, not from the text of the source: active = GI50 up to about 1.1 µM and inactive = higher.
Endpoint name: GI50

Compound	Assay target	Result value
Cc1ccc(-n2c(N)c(C#N)c3[nH]nc(N)c3c2=O)cc1	MCF7	> 100 µM (inactive)
CC(C)OCC(O)COc1ccc2ccc(=O)oc2c1 (stereo not given)	MCF7	> 100 µM (inactive)
COc1cc2c(cc1OCCCCCCCCN1C(=O)c3cccc4cccc(c34)C1=O)N=C[C@@H]1CCCN1C2=O	MCF7	3.71 µM (inactive)
c1ccc(CCNc2ccccn2)nc1	MCF7	> 100 µM (inactive)
N#Cc1ccc(OC(=O)c2ccc(NC(=N)N)cc2)cc1.c1ccncc1	MCF7	39.9 µM (inactive)
C/C(=N\NC(=S)N1CCN(C)CC1)c1nc2cccnc2[nH]1	MCF7	20.4 µM (inactive)
Cn1c(N)c(/C=C/C(=O)Oc2ccccc2)c(=O)n(C)c1=O	MCF7	47.9 µM (inactive)
COC(=O)C1(C(=O)OC)C/C(C)=C(/C)SCCCS1	MCF7	> 100 µM (inactive)
C#CCn1c(I)cc2c(c1=O)COC(=O)[C@]2(O)CC	MCF7	> 100 µM (inactive)
CO/N=C(\C)CCC#Cc1ccccc1C(=O)OC	MCF7	> 10 µM (inactive)
O=C(O)CNn1c(SCC(=O)O)nnc(/C=C/c2c(O)ccc3ccccc23)c1=O	MCF7	24 µM (inactive)
Clc1ccc(-c2nc(-c3ccc(Cl)cc3)[s+]s2)cc1	MCF7	37.3 µM (inactive)
N=C(N)SCC(=O)O	MCF7	> 100 µM (inactive)
CC(=O)O[C@H]1CC2C(C3CCC(C(C)CCC(N)=O)[C@]31C)[C@H](OC(C)=O)C[C@@H]1CC3(CC[C@]21C)OOC1(CC[C@]2(C)C4C[C@H](OC(C)=O)[C@]5(C)C(C(C)CCC(N)=O)CCC5C4[C@H](OC(C)=O)C[C@@H]2C1)OO3 (stereo not given in full)	MCF7	1.58 µM (inactive)
Nc1nc(S)nc2snnc12	MCF7	> 100 µM (inactive)

----------
- Test system: HT-29
- Assay protocol: NCI tumour cell line growth inhibition, 48 h
Activity calls are given as the source filed them. Cut-off read from the data, not from the text of the source: active = GI50 up to about 1.1 µM and inactive = higher.

Compound	Assay target	GI50
O=C(CSc1c2ccccc2nc2ccccc12)Nc1ccccc1-c1ccccc1NC(=O)CSc1c2ccccc2nc2ccccc12	HT-29	34.8 µM (inactive)
CCN(CC)CCOCCn1c2c(c3ccccc31)CCCC2	HT-29	23.7 µM (inactive)
COc1ccccc1CNCCCCCNCCCCCCCCCCNCCCCCNCc1ccccc1OC	HT-29	96.6 µM (inactive)
COc1ccc(-c2nc(-c3cc4c(ccc5ccccc54)oc3=O)cs2)cc1	HT-29	> 100 µM (inactive)
COc1cc2c(cc1OC)C(=O)/C(=C/c1cc(C)c(O)c(C)c1)C2	HT-29	5.19 µM (inactive)
COC(=O)C1=C(O)C(O)=C(C(=O)OC)C1	HT-29	> 100 µM (inactive)
CCNC(=S)N/N=C1\C(=O)Nc2ccc([N+](=O)[O-])cc21	HT-29	49.5 µM (inactive)
Nc1nc(Cl)cc(NCC2(CO)CC(O)C2)n1 (centres undefined)	HT-29	> 100 µM (inactive)
Cc1ccc(NC(=O)/C(C#N)=C/c2ccccc2)c(C)c1	HT-29	> 100 µM (inactive)
